For each of the molecules below, state its LD50.
Experiment: Toxicity of the salt was tested on white swiss male mice after intraperitoneal administration
Assay type: organism-based
Settings: mouse, in vivo, ip
Numbers only, in mg/kg.

CCCCCCCCCCCC(=O)OC[N+]1=CN(C)CC1.[Cl-] 155

Kindly consider the entry below.
The molecule `CCCCCCCCCCCCCCCC[n+]1ccccc1.[Cl-]` showed LD50 equal to 10

---

Assay: Toxicity of the salt was tested on white swiss male mice after intravenous administration
Format: organism-based
Conditions: mouse, in vivo
measurement-type: LD50 (mg/kg)
One number for each entry, in mg/kg.

The compound `CCCCCCCCCCCC(=O)OC[N+]1=CN(C)CC1.[Cl-]` showed LD50 equal to 75
